Every entry's value here was drawn from patent US20070128217A1.

Test system: rabbit serum obtained by immunizing a rabbit with the SARS-CoV strain Frankfurt 1
Assay type: binding
Set-up: unit not given here
PROPERTY_LABEL: Binding of a rabbit serum to looped peptides

- SEQUENCE_CONTENT: "GGYSEDRHSGVKDYV"
  TEST_RESULT: 0.2
- SEQUENCE_CONTENT: "DNASPASTVHATATI"
  TEST_RESULT: 0.3
- SEQUENCE_CONTENT: "LKEDYQIGGYSEDRH"
  TEST_RESULT: 0.7
- SEQUENCE_CONTENT: "FLYLYALIYFLQCIN"
  TEST_RESULT: 0.4
- SEQUENCE_CONTENT: "LVVILRIGTQVLKTM"
  TEST_RESULT: 0.6
- SEQUENCE_CONTENT: "QIQLSLLKVTAFQHQ"
  TEST_RESULT: 0.5
- SEQUENCE_CONTENT: "VVHGYFTEVYYQLES"
  TEST_RESULT: 0.7
- SEQUENCE_CONTENT: "LQTLVLKMLHSSSLT"
  TEST_RESULT: 0.3
- SEQUENCE_CONTENT: "PVKIDNASPASTVHA"
  TEST_RESULT: 0.4
